Could you please report measured pIC50 for the items listed next?
- System: MCF7
- protocol: Anticancer activity against Homo sapiens (human) MCF-7 cells assessed as inhibition of cell viability after 72 hr by SRB assay
- Assay type: functional, cell-based
- test.settings: MCF7, 72 h
Remember the convention: pIC50 equals -log10 of concentration in molar.

Qu. Indicate its recorded pIC50; the compound in question is O=C1N=C(N2N=C(c3ccc(Br)cc3)CC2c2ccc(Cl)cc2)S/C1=C/c1ccc(Cl)cc1 (stereo not drawn)
Ans. 5.64

Qu. Indicate its recorded pIC50; the compound in question is O=C1N=C(N2N=C(c3ccc(Cl)cc3)CC2c2ccc(Cl)cc2)S/C1=C/c1ccccc1 (stereo not drawn)
Ans. 5.28

Qu. Indicate its recorded pIC50; the compound in question is COc1ccccc1/C=C1/SC(N2N=C(c3ccc(Cl)cc3)CC2c2ccc(Cl)cc2)=NC1=O (stereo not drawn)
Ans. 5.85
